Origin of measurements: patent US20130012466A1

Listed here: items and their measured IC50.
test system: mouse mammary normal epithelial control cell line; experiment: Cytotoxicity assay, normal control cell line; details: read-out: Cytotoxicity IC50, NmuMG, calcein, calcein AM readout, % error in parentheses

Record excerpt, results attached:
• COc1cc2c(c(OC)c1OC)-c1ccc(OC)c(=O)cc1[C@@H](NC(=O)CN(OC)[C@@H]1O[C@H](C)[C@H](O)[C@H](O)[C@H]1O)CC2 [Col9, D-fucoside] = > 10 µM
• COc1cc2c(c(OC)c1OC)-c1ccc(OC)c(=O)cc1[C@@H](NC(=O)CN(OC)[C@@H]1O[C@H](CO)[C@@H](O)[C@H](F)[C@H]1O)CC2 [Col33, 3-fluoro-3-deoxy-D-glucoside] = > 10 µM

From here, focus on the item given below.
Value lookup for IC50; key = COc1cc2c(c(OC)c1OC)-c1ccc(OC)c(=O)cc1C(NC(=O)CN(OC)C1OCC(O)C(O)C1O)CC2 [Col7, L-lyxoside]
> 10 µM

* * *

test system: Du145; assay: Cytotoxicity assay (cell titer-glo and calcein AM), Du145; conditions: read-out: Cytotoxicity IC50, Du145, CTG; Du145; CTG (cell titer-glo) readout; % error in parentheses
Listed here: items and their measured pIC50.
# pIC50 is unitless: minus log10 of the molar concentration; print number only

* COc1cc2c(c(OC)c1OC)-c1ccc(OC)c(=O)cc1C(NC(=O)CN(OC)C1OCC(O)C(O)C1O)CC2 [Col17, L-xyloside] | 5.07

Value lookup for pIC50; key = CCCCCCCCCC(=O)N[C@@H]1[C@@H](O)[C@H](N(CC(=O)N[C@H]2CCc3cc(OC)c(OC)c(OC)c3-c3ccc(OC)c(=O)cc32)OC)O[C@H](CO)[C@H]1O [Col60, 3-deoxy-3-N-decanoyl-D-glucosaminoside]
5.32

And the next one, CCCCCCCCCC(=O)NC[C@H]1O[C@@H](N(CC(=O)N[C@H]2CCc3cc(OC)c(OC)c(OC)c3-c3ccc(OC)c(=O)cc32)OC)[C@H](O)[C@@H](O)[C@@H]1O [Col59, 6-deoxy-6-N-decanoyl-D-glucosaminoside] ?
5.28

And the next one, COc1cc2c(c(OC)c1OC)-c1ccc(OC)c(=O)cc1C(NC(=O)CN(OC)C1OCC(O)C(O)C1O)CC2 [Col22, L-riboside] ?
5.62

And the next one, COc1cc2c(c(OC)c1OC)-c1ccc(OC)c(=O)cc1[C@@H](NC(=O)CN(OC)[C@@H]1OC[C@@H](O)[C@H](O)[C@@H]1O)CC2 [Col1, D-lyxoside] ?
5.71

And the next one, COc1cc2c(c(OC)c1OC)-c1ccc(OC)c(=O)cc1[C@@H](NC(C)=O)CC2 [colchin] ?
6.77

And the next one, COc1cc2c(c(OC)c1OC)-c1ccc(OC)c(=O)cc1C(NC(=O)CN(OC)C1OCC(O)C(O)C1O)CC2 [Col25, L-arabinoside] ?
5.13

* * *

system: mouse mammary normal epithelial control cell line; test: Cytotoxicity assay, normal control cell line; conditions: read-out: Cytotoxicity IC50, NmuMG, calcein, calcein AM readout, % error in parentheses
pIC50: −log10 of the molar value.
Assay Endpoint: pIC50

Record excerpt, results attached:
* COc1cc2c(c(OC)c1OC)-c1ccc(OC)c(=O)cc1[C@@H](NC(=O)CN(OC)[C@@H]1O[C@H](CF)[C@@H](O)[C@H](O)[C@H]1O)CC2 [Col54, 6-deoxy-6-fluoro-D-glucoside] | < 5.00
* COc1cc2c(c(OC)c1OC)-c1ccc(OC)c(=O)cc1C(NC(=O)CN(OC)C1OCC(O)C(O)C1O)CC2 [Col25, L-arabinoside] | < 5.00
* COc1cc2c(c(OC)c1OC)-c1ccc(OC)c(=O)cc1C(NC(=O)CN(OC)C1OCC(O)C(O)C1O)CC2 [Col17, L-xyloside] | < 5.00
* COc1cc2c(c(OC)c1OC)-c1ccc(OC)c(=O)cc1[C@@H](NC(=O)CN(OC)[C@@H]1O[C@H](CO)[C@@H](O)C[C@H]1O)CC2 [Col3, 3-deoxy-D-glucoside] | < 5.00

Lab note: need pIC50 for COc1cc2c(c(OC)c1OC)-c1ccc(OC)c(=O)cc1[C@@H](NC(=O)CN(OC)[C@@H]1O[C@H](C(=O)O)[C@@H](O)[C@H](O)[C@H]1O)CC2 [Col15, D-glucuronoside] on mouse mammary normal epithelial control cell line, anyone have it?
< 5.30

And the next one, COc1cc2c(c(OC)c1OC)-c1ccc(OC)c(=O)cc1[C@@H](NC(=O)CN(OC)[C@@H]1OC[C@@H](O)[C@@H](O)[C@H]1O)CC2 [Col5, D-riboside] ?
< 5.00
